B1: tRNA (parent)
chain: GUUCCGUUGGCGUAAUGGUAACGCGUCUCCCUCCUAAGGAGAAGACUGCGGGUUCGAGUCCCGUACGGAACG

- Variants of: B1
- Assay Details: yeast fitness, log relative to wild type (ln ratio); higher = fitter; tRNA-Arg(CCU), competitive growth, 37 C, 1 M NaCl
Metric Name: yeast fitness (ln)

Take a look at these entries with their results.
- Sequence Text: "GGUCCAUUGGCGUAAUGGUAACGCGUCUCCCUCCUAAGGAGAAGACUGCGGGUUCGAGUCCCGUAUGGGGCG"
  Result: -0.448
- Sequence Text: "AUUCCAUUGGCGUAAUGGUAACGCGUCUCCCUCCUAAGGAGAAGACUGCGGGUUCGAGUCCCGUAUGGGUUG"
  Result: -0.266

Item: `AGUCCUUUGGCGUAAUGGUAACGCGUUUCCCUCCUAAGGAGAAGAUUGCGGGUUCGAGUCCCGUAUGGAGCG` | yeast fitness (ln): -0.437

Value of measured yeast fitness (ln) for the entry `GCUCCGUUGGCGUAAUGGUAACGCGUCUCCCUCCUAAGGAGACGACUGCGGGUUCGAGUCCCGUAUGGAGCG` : -0.0636

Just so you know, measured yeast fitness (ln) for `AUUCCUUUGGCGUAAUGGUAACGCGUCUCCCUCCUAAGGAGACGACUGCGGGUUCGAGUCCCGUAUGGAUUG` came out at -0.38
